# experimental-system: protein-protein interaction between Kras and SOS1 (biotin-tagged human Kras loaded with GDP, His-tagged human SOS1) (Homo sapiens (Human), UniProt P01116, G12D)
# test: Protein-protein interaction inhibition between Kras and SOS1 (KrasG12D-SOS PPI) using AlphaScreen;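 also: kras produced in E. coli, Ni-coupled donor beads and streptavidin acceptor beads, excitation 680 nm with emission detected at 520–620 nm via singlet oxygen transfer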
# Type: biochemical
# recorded-conditions: AlphaScreen; biotin-tagged human Kras loaded with GDP, His-tagged human SOS1; read-out: KRAS G12D-SOS PPI IC50
Numbered stars: 1 amine (or outer) side, 2 acyl side, 3 side chain; on linkers, the order of the positions; unused ones are H or OH. Bridge positions count the residues as written; N and C are the ends. Square brackets hold non-standard residues; d marks the D form. Peptide text beside a SMILES is read from it. * marks the point of attachment. hPhe(3-Cl-4-CF3) = N[C@@H](CCc1ccc(C(F)(F)F)c(Cl)c1)C(=O)O; hPhe(3-F,4-CF3) = N[C@@H](CCc1ccc(C(F)(F)F)c(F)c1)C(=O)O; hPhe(4-CF3) = N[C@@H](CCc1ccc(C(F)(F)F)cc1)C(=O)O; NEtPhe(4-Me) = CCN[C@@H](Cc1ccc(C)cc1)C(=O)O; NMePhe(4-Cl) = CN[C@@H](Cc1ccc(Cl)cc1)C(=O)O; NMedβ3hAla = C[C@H](CC(=O)[*:2])N(C)[*:1]; NMeAla(cPent) = CN[C@@H](CC1CCCC1)C(=O)O; NMeGly(cPent) = CN[C@H](C(=O)O)C1CCCC1; NMeCha = CN[C@@H](CC1CCCCC1)C(=O)O; NMeF = CN[C@@H](Cc1ccccc1)C(=O)O; NMeD = CN[C@@H](CC(=O)O)C(=O)O; NMeL = CN[C@@H](CC(C)C)C(=O)O; NMeV = CN[C@H](C(=O)O)C(C)C; Azetidin(1-yl) = C1CN(*)C1; NMeC = CN[C@@H](CS)C(=O)O; NMeA = CN[C@@H](C)C(=O)O; Piperidide = C1CCN(*)CC1; dNMeA = CN[C@H](C)C(=O)O; Ac5c = NC1(C(=O)O)CCCC1; Aze = O=C(O)[C@@H]1CCN1; Sar = CNCC(=O)O
Label 1 when IC50 is strictly below 20 nM; otherwise label -1.

See these solved cases before continuing.
- compound: "CC[C@H](C)[C@@H]1NC(=O)[C@H](CC2CCCC2)N(C)C(=O)C[C@@H](C(=O)N2CCC2)N(C)C(=O)[C@H](C2CCCC2)N(C)C(=O)C2(CCCC2)NC(=O)[C@@H]2CCCN2C(=O)[C@H](CCc2ccc(C(F)(F)F)c(Cl)c2)NC(=O)CN(C)C(=O)[C@H](CC2CCCCC2)N(C)C(=O)[C@@H]2CCN2C(=O)[C@H](C)N(C)C1=O [Compound 1199] ([NMeAla(cPent)]I[NMeA][Aze][NMeCha][Sar][hPhe(3-Cl-4-CF3)]P[Ac5c][NMeGly(cPent)][NMeD]-{Azetidin(1-yl)}; lactam N-11)"
  qualitative-label: 1
- compound: "CC[C@H](C)[C@@H]1NC(=O)[C@H](C)N(C)C(=O)C[C@@H](C(=O)N2CCCCC2)N(C)C(=O)[C@H](C(C)C)N(C)C(=O)C2(CCCC2)NC(=O)[C@@H]2CCCN2C(=O)[C@H](CCc2ccc(C(F)(F)F)c(Cl)c2)NC(=O)[C@@H](C)N(C)C(=O)[C@H](Cc2ccccc2)N(C)C(=O)[C@@H]2CCN2C(=O)[C@H](C)N(C)C1=O [Compound 1724] ([NMeA]I[NMeA][Aze][NMeF][dNMeA][hPhe(3-Cl-4-CF3)]P[Ac5c][NMeV][NMeD]-Piperidide; lactam N-11)"
  qualitative-label: 1
- compound: "CC[C@H](C)[C@@H]1NC(=O)[C@H](C)N(C)C(=O)C[C@@H](C)N(C)C(=O)[C@H](CC(C)C)N(C)C(=O)[C@H](Cc2ccccc2)N(C)C(=O)[C@H](CC(C)C)NC(=O)[C@H](CCc2ccc(C(F)(F)F)cc2)NC(=O)CN(C)C(=O)[C@H](Cc2ccc(Cl)cc2)N(C)C(=O)CN(C)C(=O)CN(C)C1=O [Compound 927] (cyclo(I[Sar][Sar][NMePhe(4-Cl)][Sar][hPhe(4-CF3)]L[NMeF][NMeL][NMedβ3hAla][NMeA]))"
  qualitative-label: -1

Request: Determine if CC[C@H](C)[C@@H]1NC(=O)[C@H](CC(C)C)N(C)C(=O)C[C@@H](C(=O)N(C)C)N(C)C(=O)[C@H](C2CCCC2)N(C)C(=O)C2(CCCC2)NC(=O)[C@@H]2CCCN2C(=O)[C@H](CCc2ccc(C(F)(F)F)c(F)c2)NC(=O)CN(C)C(=O)[C@H](Cc2ccc(C)cc2)N(CC)C(=O)[C@@H]2CCN2C(=O)[C@H](C)N(C)C1=O [Compound 1152] ([NMeL]I[NMeA][Aze][NEtPhe(4-Me)][Sar][hPhe(3-F,4-CF3)]P[Ac5c][NMeGly(cPent)][NMeD]-NMe2; lactam N-11) shows IC50 strictly lower than 20 nM.
Response: 1

Request: // repeat for CC[C@H](C)[C@@H]1NC(=O)[C@H](CC(C)C)N(C)C(=O)CSC[C@@H](C(=O)N(C)C)N(C)C(=O)[C@H](C2CCCC2)N(C)C(=O)C2(CCCC2)NC(=O)[C@@H]2CCCN2C(=O)[C@H](CCc2ccc(C(F)(F)F)c(F)c2)NC(=O)CN(C)C(=O)[C@H](C2CCCC2)N(C)C(=O)[C@@H]2CCN2C(=O)[C@H](C)N(C)C1=O [Compound 2179] ({CH2CO}-[NMeL]I[NMeA][Aze][NMeGly(cPent)][Sar][hPhe(3-F,4-CF3)]P[Ac5c][NMeGly(cPent)][NMeC]-NMe2; thioether N-11) and report
Response: -1
